molecular target: intracellular CK2α (Homo sapiens); test: Cell-based NanoBRET assay for inhibitor binding to intracellular CK2α; conditions: HCT116 cells transiently transfected with CSNK2A2-NanoLuc fusion vector; Tracer K-5; 2 h; read-out: Assay 3: NanoBRET ™ assay for binding to intracellular CK2α
Sequence (P19784 whole entry, the tested form may be a part): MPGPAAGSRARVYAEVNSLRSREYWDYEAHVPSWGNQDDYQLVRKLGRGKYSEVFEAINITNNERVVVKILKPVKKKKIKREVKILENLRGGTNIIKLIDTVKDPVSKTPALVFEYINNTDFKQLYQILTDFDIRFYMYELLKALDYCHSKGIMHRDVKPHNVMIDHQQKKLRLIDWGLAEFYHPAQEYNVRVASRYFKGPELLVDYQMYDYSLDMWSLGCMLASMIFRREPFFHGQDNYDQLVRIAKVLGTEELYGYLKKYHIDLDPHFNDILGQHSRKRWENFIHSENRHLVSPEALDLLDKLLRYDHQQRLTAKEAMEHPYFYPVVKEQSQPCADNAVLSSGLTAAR
attribute.measured: log10(IC50) (log10 of the value in nM)
A value of 2 here means IC50 of 100 in nM, since values are log10.

Identify measured log10(IC50) associated with Cc1c(-c2ccncc2)cc(NCCOCCCCNCc2cc(F)c(OC(F)(F)F)c(F)c2)c2cn[nH]c12
3.16

Identify measured log10(IC50) associated with N#CCc1cc(CNCCCCOC2CN(c3cc(-c4ccnnc4)cc4[nH]ncc34)C2)cc(C(F)(F)F)c1
3.40

Identify measured log10(IC50) associated with OCc1cc(F)cc(CNCCCCOC2CN(c3cc(-c4ccnnc4)cc4[nH]ncc34)C2)c1
4.31

Identify measured log10(IC50) associated with O=C(CCNCc1ccc(OC(F)(F)F)c(Cl)c1)NCCCNc1cc(-n2cnnc2)c(Cl)c2[nH]ncc12
4.06

Identify measured log10(IC50) associated with OCCOc1cc(CNC2CC(COCCOc3cc(-c4cnnc(O)c4)cc4[nH]ncc34)C2)cc(OC(F)(F)F)c1 (stereo not shown)
3.29

Identify measured log10(IC50) associated with FC(F)(F)c1ccc2[nH]c(CNCCCCOCCNc3cccc4[nH]ncc34)cc2c1
4.47

Identify measured log10(IC50) associated with O=C(CCNCc1ccc(OC(F)(F)F)c(Cl)c1)NCCCNc1cc(-c2ccncc2Cl)cc2[nH]ncc12
3.81

Identify measured log10(IC50) associated with N#Cc1cc(NCCOCCCCNCc2cc3cc(C(F)(F)F)ccc3[nH]2)c2cn[nH]c2c1
3.30

Identify measured log10(IC50) associated with Fc1cc(CNCCCCOCCNc2cc(-c3ccncc3)c(Cl)c3[nH]ncc23)cc(F)c1OC(F)(F)F
3.43

Identify measured log10(IC50) associated with O=C(CCNCc1ccc(-c2ccccc2)c(Cl)c1)NCCCNc1cc(-c2ccncc2)cc2[nH]ncc12
2.09

Identify measured log10(IC50) associated with CNc1n[nH]c2cc(-n3cnnc3)cc(NCCCNC(=O)CCNCc3ccc(OC(F)(F)F)c(Cl)c3)c12
2.93

Identify measured log10(IC50) associated with O=C(CCNCc1cc2ccc(Cl)cc2[nH]1)NCCCNc1cc(-n2cnnc2)cc2[nH]ncc12
2.98

Identify measured log10(IC50) associated with FC(F)(F)Oc1ccc(CNCCc2ncc(CCNc3cc(-n4cnnc4)cc4[nH]ncc34)o2)cc1Cl
3.26

Identify measured log10(IC50) associated with FC(F)(F)Oc1ccc(CNCCCCOCCNc2cc(-c3ccnnc3)cc3[nH]nnc23)cc1Cl
3.00

Identify measured log10(IC50) associated with O=C(CCNCc1ccc(OC(F)(F)F)c(Cl)c1)NCCCNc1cc(-n2ccnn2)cc2[nH]ncc12
2.29

Identify measured log10(IC50) associated with N#CCc1cc(Cl)cc(CNCCCCOC2CN(c3cc(-n4cnnc4)cc4[nH]ncc34)C2)c1
3.48

Identify measured log10(IC50) associated with N#CCc1cc(NCCOCCCCNCc2cc(CO)cc(OC(F)(F)F)c2)c2cn[nH]c2c1
2.61

Identify measured log10(IC50) associated with N#CCc1cc(Cl)cc(CNCCCCOC2CN(c3cc(-c4ccnnc4)cc4[nH]ncc34)C2)c1
3.49

Identify measured log10(IC50) associated with c1cc2[nH]c(CNCCCCOCCNc3cc(-n4cnnc4)cc4[nH]ncc34)cc2cc1OC1CCC1
2.20

Identify measured log10(IC50) associated with OCc1cc(F)cc(CNCCCCOC2CN(c3cc(-c4cnoc4)cc4[nH]ncc34)C2)c1
3.77

Identify measured log10(IC50) associated with N#Cc1cc(CNCCC(=O)NCCCNc2cc(-n3cnnc3)cc3[nH]ncc23)ccc1OC1CCC1
3.32

Identify measured log10(IC50) associated with Cc1nccn1-c1cc(NCCCNC(=O)CCNCc2ccc(-c3ccccc3)c(Cl)c2)c2cn[nH]c2c1
3.91

Identify measured log10(IC50) associated with Cn1c(CNCCCCOCCNc2cc(-n3cnnc3)cc3[nH]ncc23)nc2ccc(Cl)cc21
4.27

Identify measured log10(IC50) associated with Cc1cn(-c2cc(NCCCNC(=O)CCNCc3ccc(-c4ccccc4)c(Cl)c3)c3cn[nH]c3c2)cn1
3.32

Identify measured log10(IC50) associated with O=C(CCNCc1ccc(OC(F)(F)F)c(Cl)c1)NCCCNc1cc(-c2cn[nH]c(=O)c2)cc2[nH]ncc12
2.32

Identify measured log10(IC50) associated with OCc1cc(CNC2CC(COCCNc3cc(-c4cnns4)cc4[nH]ncc34)C2)cc(OC(F)(F)F)c1 (stereo not shown)
2.74

Identify measured log10(IC50) associated with O=C(CCNCc1ccc(-c2ccccc2)c(Cl)c1)NCCCNc1cc(-n2cncn2)cc2[nH]ncc12
2.38

###

Molecular target: intracellular CK2α (Homo sapiens)
Assay: Cell-based NanoBRET assay for inhibitor binding to intracellular CK2α
Settings: HCT116 cells transiently transfected with CSNK2A2-NanoLuc fusion vector; Tracer K-5; 2 h; read-out: Assay 3: NanoBRET ™ assay for binding to intracellular CK2α
Experimental: This assay used the NanoBRET™ System (Promega), an energy transfer technique designed to measure molecular proximity in living cells. The assay measured the apparent affinity of test compounds by competitive displacement of a NanoBRET™ tracer reversibly bound to a NanoLucR luciferase CK2α fusion protein in cells. A fixed concentration of tracer was added to cells expressing the desired NanoLucR-CK2α fusion protein to generate a BRET reporter complex. […]
attribute.measured: pIC50
// pIC50: -log10(molar conc.)

Identify measured pIC50 associated with O=C(CCNCc1ccc(OC(F)(F)F)c(Cl)c1)NCCCNc1cc(-c2ncno2)cc2[nH]ncc12
6.44

Identify measured pIC50 associated with N#Cc1[nH]ncc1-c1cc(NCCCNC(=O)CCNCc2ccc(OC(F)(F)F)c(Cl)c2)c2cn[nH]c2c1
6.97

Identify measured pIC50 associated with Clc1cc(CNCCc2cn(CCNc3cc(-n4cnnc4)cc4[nH]ncc34)nn2)ccc1-c1ccccc1
5.67

Identify measured pIC50 associated with COc1n[nH]cc1-c1cc(NCCCNC(=O)CCNCc2ccc(-c3ccccc3)c(Cl)c2)c2cn[nH]c2c1
6.13

Identify measured pIC50 associated with Clc1ccc2cc(CNCCCCOCCNc3cc(-n4cnnc4)cc4[nH]ncc34)[nH]c2c1
6.53

Identify measured pIC50 associated with N#CCc1cc(CNCCCCOCCNc2cc(-n3cnnc3)cc3[nH]nnc23)cc(OC(F)(F)F)c1
5.69

Identify measured pIC50 associated with c1cc(-c2cc(OCCOCCCCNCc3cc4cc(OC5CCC5)ccc4[nH]3)c3cn[nH]c3c2)cnn1
6.83

Identify measured pIC50 associated with N#Cc1cc(-c2cc(NCCCNC(=O)CCNCc3ccc(-c4ccccc4)c(Cl)c3)c3cn[nH]c3c2)ccn1
5.67

Identify measured pIC50 associated with FC(F)(F)Oc1ccc(CNCCCNCCCOc2cc(-n3cnnc3)cc3[nH]ncc23)cc1Cl
4.86

Identify measured pIC50 associated with N#Cc1cc(-c2cc(NCCCNC(=O)CCNCc3ccc(OC(F)(F)F)c(Cl)c3)c3cn[nH]c3c2)cnn1
6.02

Identify measured pIC50 associated with O=C(CCNCc1ccc(OC(F)(F)F)c(Cl)c1)NCCCNc1cc(-c2nnco2)cc2[nH]ncc12
6.08

Identify measured pIC50 associated with FC(F)(F)Oc1ccc(CNCCCCOC2CN(c3cc(-n4cnnc4)cc4[nH]ncc34)C2)cc1Cl
6.06

Identify measured pIC50 associated with O=C(CCNCc1ccc(-c2ccccc2)c(Cl)c1)NCCCNc1cc(-c2cccnc2)cc2[nH]ncc12
6.06

Identify measured pIC50 associated with O=C(CCNCc1ccc(OC(F)(F)F)c(Cl)c1)NCCCNc1cc(-c2cocn2)cc2[nH]ncc12
5.91

Identify measured pIC50 associated with NC(=O)c1cc(NCCCNC(=O)CCNCc2ccc(-c3ccccc3)c(Cl)c2)c2cn[nH]c2c1
5.23

Identify measured pIC50 associated with O=C(CCNCc1cccc(Cl)c1)NCCCNc1cc(-n2cnnc2)cc2[nH]ncc12
5.41

Identify measured pIC50 associated with COc1cc(-c2cc(NCCCNC(=O)CCNCc3ccc(-c4ccccc4)c(Cl)c3)c3cn[nH]c3c2)ccn1
6.44

Identify measured pIC50 associated with FC(F)(F)Oc1ccc(CNCCCCNCCNc2cc(-n3cnnc3)cc3[nH]ncc23)cc1Cl
6.23

Identify measured pIC50 associated with C[C@H](COCCCCNCc1cc(CO)cc(OC(F)(F)F)c1)Nc1cc(-c2cnns2)cc2[nH]ncc12
7.16

Identify measured pIC50 associated with O=C(COCCCCNCc1ccc(OC(F)(F)F)c(Cl)c1)Nc1cc(-n2cnnc2)cc2[nH]ncc12
5.56

Identify measured pIC50 associated with O=C(CCNCc1n[nH]c(-c2ccccc2)c1Cl)NCCCNc1cc(-n2cnnc2)cc2[nH]ncc12
5.00

Identify measured pIC50 associated with N#Cc1n[nH]cc1-c1cc(NCCCNC(=O)CCNCc2ccc(-c3ccccc3)c(Cl)c2)c2cn[nH]c2c1
6.83

Identify measured pIC50 associated with O=C(CCNCc1ccc(-c2ccccc2)c(Cl)c1)NCCCNc1cccc2[nH]ncc12
6.75

Identify measured pIC50 associated with CN(CCCCNCc1ccc(OC(F)(F)F)c(Cl)c1)CCNc1cc(-n2cnnc2)cc2[nH]ncc12
6.53

Identify measured pIC50 associated with OCc1cc(CNCCCCOC2CN(c3cc(-n4cnnc4)cc4[nH]ncc34)C2)cc(C(F)(F)F)c1
4.83

Identify measured pIC50 associated with COc1n[nH]cc1-c1cc(NCCOCCCCNCc2cc3cc(C(F)(F)F)ccc3[nH]2)c2cn[nH]c2c1
5.75
